Test: NCI Yeast Anticancer Drug Screen. Data for the rad14 strain (AID 159);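 further: 0% = growth of vehicle-treated control cultures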
Settings: S. cerevisiae rad14 strain growth inhibition; at 33.0 µM
Compounds without any hit were thinned out: in the full panel of roughly 79,000, 15% have a hit. Active and inactive are the calls of the source. No stated cut-off is given here; in the data, active means growth inhibition above about 70%; inactive means the rest.
Give one outcome, nothing more. List: 1 for active, -1 for inactive

COc1ccc(NC(=O)CC2SC(=Nc3ccccc3C)NC2=O)c([N+](=O)[O-])c1 (stereo not given) : -1

Just curious, what result did CCOC(=N)c1ccc(O)c(OC)c1 get here?
-1

Just curious, what result did OCC(CO)C(c1cccc2ccccc12)c1cccc2ccccc12 get here?
1

Just curious, what result did CCOC(=O)C(C(=O)OCC)=P(c1ccccc1)(c1ccccc1)c1ccccc1 get here?
-1

Just curious, what result did CN(C)CCNC(=O)c1cccc2cc([N+](=O)[O-])ccc12 get here?
1

Just curious, what result did CCOC1=C/C(=N\Nc2ccc([N+](=O)[O-])cc2)CCC1 get here?
1

Just curious, what result did O=C1Nc2ccc(Br)cc2C1=Nc1ccc2c(c1)OCO2 get here?
-1

Just curious, what result did O=c1nc2n(Cc3ccccc3)c3ccccc3nc-2c(=O)[nH]1 get here?
-1

Just curious, what result did COc1cccc2c1C(=O)c1c(O)c3c(c(O)c1C2=O)C[C@@](O)(C(C)=O)C[C@@H]3OC1CC(OC(C)=O)C(OC(C)=O)C(C)O1 (stereo not given in full) get here?
-1

Just curious, what result did Cc1nc(Nc2ccccc2[N+](=O)[O-])sc1C(=O)CC(=O)C(=O)Nc1c(C(C)C)cccc1C(C)C get here?
-1
